- measurement-protocol: self-splicing fitness, log relative to wild type (ln ratio); higher = more splicing; Tetrahymena group I intron in knt gene, E. coli kanamycin selection, DiMSum; sequences stand for … in CUCUCU…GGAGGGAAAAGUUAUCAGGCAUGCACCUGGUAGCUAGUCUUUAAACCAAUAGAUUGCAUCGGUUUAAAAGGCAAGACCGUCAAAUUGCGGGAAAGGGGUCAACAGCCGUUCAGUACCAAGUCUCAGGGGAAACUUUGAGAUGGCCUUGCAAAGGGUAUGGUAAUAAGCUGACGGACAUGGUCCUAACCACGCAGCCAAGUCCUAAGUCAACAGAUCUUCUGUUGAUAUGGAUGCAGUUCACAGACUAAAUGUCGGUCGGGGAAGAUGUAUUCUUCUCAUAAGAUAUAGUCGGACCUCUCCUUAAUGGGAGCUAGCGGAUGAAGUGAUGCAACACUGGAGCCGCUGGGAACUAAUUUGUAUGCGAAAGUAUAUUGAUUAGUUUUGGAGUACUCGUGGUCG;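 note: selection with 25 µg/mL kanamycin versus none on LB agar overnight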
- recorded-conditions: 37 °C
Lab note: anything with self-splicing fitness (ln) at or over -2 counts as Criterion met; the rest go in Criterion not met.

> print(dat)
          entry.sequence       answer.label
 1  UUUCAGCAAUAUUACGGGGU      Criterion met
 2  GUGUAGCAAUAUUACGUCUU      Criterion met
 3  CCAUAGCAAUAUUACGAAGU  Criterion not met
 4  CGUGAGCAAUAUUACGUACU      Criterion met
 5  ACGAAGCAAUAUUACGCCCA      Criterion met
 6  CACUAGCAAUAUUACGUUGU  Criterion not met
 7  UCGUAGCAAUAUUACGAAUA  Criterion not met
 8  GACGAGCAAUAUUACGCGAG  Criterion not met
 9  CUACAGCAAUAUUACGGACU      Criterion met
10  GACUAGCAAUAUUACGUGCU      Criterion met
11  GAUUAGCAAUAUUACGCGUG      Criterion met
12  ACUUAGCAAUAUUACGAAUU      Criterion met
13  AGAGAGCAAUAUUACGGGUC  Criterion not met
14  CUAUAGCAAUAUUACGCGCA      Criterion met
15  GCAUAGCAAUAUUACGAAAU      Criterion met
16  GGGCAGCAAUAUUACGACGC      Criterion met
17  UGAGAGCAAUAUUACGCAAC      Criterion met
18  UAUCAGCAAUAUUACGAAUU      Criterion met
19  CGGUAGCAAUAUUACGAUUC      Criterion met
20  GCCAAGCAAUAUUACGGUCA      Criterion met
21  UGUAAGCAAUAUUACGAAUC  Criterion not met
22  AGCUAGCAAUAUUACGGUCC      Criterion met
23  AAGCAGCAAUAUUACGUGCC      Criterion met
24  UCGAAGCAAUAUUACGUUAA      Criterion met
25  CAUCAGCAAUAUUACGAGGC  Criterion not met
26  UUAAAGCAAUAUUACGAUAU      Criterion met
27  CUAAAGCAAUAUUACGACGU      Criterion met
28  AGCUAGCAAUAUUACGCUGA      Criterion met
29  ACGGAGCAAUAUUACGGCCA  Criterion not met
30  CUAGAGCAAUAUUACGGGGA  Criterion not met
31  AGACAGCAAUAUUACGGCAU      Criterion met
